Reference for the values: patent US10047105B2

- System: S. aureus ATCC 13709
- ASSAY: MIC, antibacterial potency, S. aureus
- Format: cell-based
- TEST_CONTEXT: S. aureus (SA); in µg/mL
Documented MIC, SA across a set of compounds
Just the number, please, no unit attached.

In [3]: df
Out[3]:
                                   compound  test_readout  value
0  CCc1[nH]c2nc(Cc3cccnc3)nc(Oc3cccc(C#N)c3)c2c1Cl       MIC, SA     32
1  NC1CN(c2nc(Sc3cnc4ccc[n+]([O-])c4c3)nc3[nH]c(C4CC4)c(Cl)c23)C1       MIC, SA      8
2  CCc1[nH]c2nc(Sc3cnc4nccnc4c3)nc(N3CCCC(CO)C3)c2c1Cl (stereo not shown)       MIC, SA      2
3  CCc1[nH]c2nc(Sc3cnc4cccnc4c3)nc(N3C[C@H](N)[C@H](C(=O)NCC(C)C)C3)c2c1Cl       MIC, SA      2
4  CCc1[nH]c2nc(Sc3ccc4c(N5CC[C@@H](N)C5)ncnc4c3)nc(N3CC[C@@H](N)C3)c2c1Cl       MIC, SA     32
5  CCc1[nH]c2nc(Sc3cnc4nccnc4c3)nc(N(CCN)CC(C)c3ccccc3)c2c1Cl (stereo not shown)       MIC, SA     32
6  CCc1[nH]c2nc(Sc3ccc4c(N5CC[C@@H](N)C5)cc(C(=O)O)nc4c3)nc(N3CC[C@@H](N)C3)c2c1Cl       MIC, SA     64

// moving on: another record for MIC, SA
Consider the compound "CCc1[nH]c2nc(Sc3ccc4cc(C(=O)O)c(C(=O)O)nc4c3)nc(N3CC[C@@H](N)C3)c2c1Cl" and give its recorded MIC, SA.
32
